Numbers sourced from patent US20240336686A1.

Test Target: Human SIRPα v1 (human) (UniProt P78324)
Sequence (P78324 31-370): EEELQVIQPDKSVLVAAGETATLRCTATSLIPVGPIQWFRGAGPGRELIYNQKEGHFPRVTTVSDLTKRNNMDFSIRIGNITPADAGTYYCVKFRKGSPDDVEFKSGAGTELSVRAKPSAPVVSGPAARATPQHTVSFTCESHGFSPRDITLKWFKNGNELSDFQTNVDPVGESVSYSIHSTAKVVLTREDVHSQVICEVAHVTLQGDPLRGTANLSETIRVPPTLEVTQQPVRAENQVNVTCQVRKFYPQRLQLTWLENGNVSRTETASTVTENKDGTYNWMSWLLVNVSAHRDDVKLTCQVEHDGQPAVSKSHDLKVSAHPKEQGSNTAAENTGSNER
Procedure Text: SPR (Biacore), 1:1 binding model
Returns one of Fulfilled or Not fulfilled; Fulfilled when koff is >= 0.001 s⁻¹.

Binder	Class Name
Humanized anti-SIRPα antibody hu025.023 (antibody, V domains shown) VH: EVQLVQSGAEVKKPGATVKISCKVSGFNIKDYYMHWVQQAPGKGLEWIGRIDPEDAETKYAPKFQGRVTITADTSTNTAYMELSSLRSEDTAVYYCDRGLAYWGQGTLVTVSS VL: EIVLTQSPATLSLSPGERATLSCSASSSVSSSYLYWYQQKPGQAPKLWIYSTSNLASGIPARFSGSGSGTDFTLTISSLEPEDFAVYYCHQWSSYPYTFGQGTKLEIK	Fulfilled
Humanized anti-SIRPα antibody hu025.059 (antibody, V domains shown) VH: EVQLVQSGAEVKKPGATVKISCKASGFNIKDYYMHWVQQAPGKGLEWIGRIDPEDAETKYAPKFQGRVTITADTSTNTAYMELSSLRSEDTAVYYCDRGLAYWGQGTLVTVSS VL: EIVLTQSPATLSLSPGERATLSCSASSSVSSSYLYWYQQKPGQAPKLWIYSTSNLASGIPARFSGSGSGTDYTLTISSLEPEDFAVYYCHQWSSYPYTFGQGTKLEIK	Fulfilled
Anti-SIRPα antibody C25 (antibody, V domains shown) VH: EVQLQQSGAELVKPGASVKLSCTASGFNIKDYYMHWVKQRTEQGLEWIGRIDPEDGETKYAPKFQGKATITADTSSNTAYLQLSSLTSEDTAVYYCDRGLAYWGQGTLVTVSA VL: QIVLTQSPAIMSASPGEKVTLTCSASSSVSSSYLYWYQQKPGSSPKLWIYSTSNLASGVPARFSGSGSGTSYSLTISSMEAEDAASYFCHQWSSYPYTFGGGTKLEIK	Not fulfilled
Humanized anti-SIRPα antibody hu025.021 (antibody, V domains shown) VH: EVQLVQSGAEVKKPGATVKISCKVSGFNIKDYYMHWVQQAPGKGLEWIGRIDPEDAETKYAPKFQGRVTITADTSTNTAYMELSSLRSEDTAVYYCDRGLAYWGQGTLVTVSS VL: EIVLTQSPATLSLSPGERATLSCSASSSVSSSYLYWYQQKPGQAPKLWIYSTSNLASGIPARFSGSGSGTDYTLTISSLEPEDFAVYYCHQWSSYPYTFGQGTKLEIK	Fulfilled
Humanized anti-SIRPα antibody hu025.060 (antibody, V domains shown) VH: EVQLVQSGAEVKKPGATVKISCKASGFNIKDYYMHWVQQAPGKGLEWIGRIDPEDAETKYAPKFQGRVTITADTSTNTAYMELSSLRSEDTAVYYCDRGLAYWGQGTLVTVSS VL: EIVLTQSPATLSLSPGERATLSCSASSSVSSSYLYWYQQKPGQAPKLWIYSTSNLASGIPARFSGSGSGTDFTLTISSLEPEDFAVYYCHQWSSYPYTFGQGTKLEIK	Fulfilled
